Please respond with reported Activity for every item in the list.
- Test name: ABTS radical scavenging activity assessed as Trolox equivalent antioxidant capacity at 50 uM by spectrophotometric analysis
- Type: physicochemical
Answers are plain numbers.

compound=O=C(O)/C=C/c1cc(O)c(O)c(Br)c1 property_measured=Activity test_value=2.496
compound=O=C(O)/C=C/c1ccc(O)c(O)c1 property_measured=Activity test_value=2.538
compound=CCOC(=O)/C=C/c1cc(O)c(O)c(Br)c1 property_measured=Activity test_value=2.527
compound="COc1cc(/C=C/C(=O)O)cc(OC)c1O [SINAPINATE]" property_measured=Activity test_value=2.538
compound=CCOC(=O)/C=C/c1cc(Br)c(O)c(OC)c1 property_measured=Activity test_value=2.558
compound=COc1cc(/C=C/C(=O)O)cc(Br)c1O property_measured=Activity test_value=2.554

I need Activity for every entry listed below, if you could help.
1. CCOC(=O)/C=C/c1ccc(O)c(OC)c1 [ETHYL FERULATE]
2. CCOC(=O)/C=C/c1ccc(O)c(O)c1 [ETHYL CAFFEATE]
3. COc1cc(/C=C/C(=O)O)ccc1O [FERULATE]

Solution:
1: 2.538; 2: 2.558; 3: 2.534

---

- Test name: Octanol-water partition coefficient, log P of the compound
Please respond with reported logP for every item in the list.
Give bare numbers.

I need logP for every entry listed below, if you could help.
1. CCOC(=O)/C=C/c1cc(O)c(O)c(Br)c1
2. CCOC(=O)/C=C/c1cc(Br)c(O)c(OC)c1
3. CCOC(=O)/C=C/c1ccc(O)c(O)c1 [ETHYL CAFFEATE]
4. COc1cc(/C=C/C(=O)O)ccc1O [FERULATE]
5. O=C(O)/C=C/c1cc(O)c(O)c(Br)c1
6. CCOC(=O)/C=C/c1ccc(O)c(OC)c1 [ETHYL FERULATE]
7. COc1cc(/C=C/C(=O)O)cc(Br)c1O

Solution:
[2.58, 2.85, 1.75, 1.42, 1.98, 2.02, 2.25]
